test system: MDA-MB-231; experiment: NCI tumour cell line growth inhibition, 48 h
Active and inactive are the calls of the source. Cut-off read from the data, not from the text of the source: active = GI50 up to about 1.1 µM and inactive = higher.
// values below are reported GI50
quantity_name: GI50

• N#Cc1ccc(-c2nc3cc(Cl)ccc3[nH]2)cc1 = > 100 µM (inactive)
• CCCCCC[C@H]1CC(=O)C2CCCC[C@@]23CC[C@H](CCl)N13.CCCCCC[C@H]1CC(=O)C2CCCC[C@@]23C[C@H](Cl)CN13 (stereo partly drawn) = 84.5 µM (inactive)
• CN1C2=Nc3n(C)c4ccccc4[n+]3CN2c2ccccc21 = 34.6 µM (inactive)

* * *

test system: UACC-62; experiment: NCI tumour cell line growth inhibition, 48 h
The source made the active and inactive calls. Cut-off read from the data, not from the text of the source: active = GI50 up to about 1.1 µM and inactive = higher.
quantity_name: GI50

* Cc1nc(N2N=C(c3ccc(Cl)cc3)CCC2=O)sc1[N+](=O)[O-] | > 100 µM (inactive)
* Cc1ccc(C)c(NC(=O)C(=O)C(C(=O)c2ccc3ccccc3c2)C2OC(=O)c3ccccc32)c1 (configuration not stated) | 14.6 µM (inactive)
* CC(C)(C)c1ccc(NS(=O)(=O)c2ccc(N)cc2)cc1 | 15.7 µM (inactive)
* OCC1CCCCCCCCCCC12SCCCS2 (configuration not stated) | > 100 µM (inactive)
* CC(=O)Nc1ccc2nc(-c3cccc(Cl)c3)cc(O)c2c1 | 2.42 µM (inactive)
* COc1cc(CNc2c3ccccc3nc3ccccc23)cc(OC)c1OC | 2.43 µM (inactive)
* COC(=O)C(Cc1ccc2c(c1)CCCC2)Cc1cc2c(cc1C(O)OC)CCC2 (configuration not stated) | > 100 µM (inactive)
* COC(=O)c1ccccc1Nc1ccccc1C(=O)OC | > 100 µM (inactive)
* CN(C)c1ccc(/C=C/c2ccnc3ccccc23)cc1N | 12.1 µM (inactive)
* Cc1ccc(S(=O)(=O)NC(=O)NCCc2ccccc2)cc1 | > 100 µM (inactive)
* N#Cc1ccccc1/C=N/O | > 100 µM (inactive)
* O=S(=O)(c1ccccc1)C1CC(c2nc3ccccc3[nH]2)=NO1 (configuration not stated) | > 100 µM (inactive)
* COc1ccc2c(c1)-c1c(c3cc(OC)ccc3n1CCN1CCOCC1)CC2 | 16.8 µM (inactive)
* CCOC(=O)c1nc2cc(C(F)(F)F)ccc2nc1Nc1ccc(C(=O)OC)s1 | 23.2 µM (inactive)
* CC(NC1CCCC[C@H]1O)c1ccccc1 (some centres not stated) | > 100 µM (inactive)
* CC(NC(=O)C(N)CC(=O)O)C(=O)OC12CC3CC(CC(C3)C1)C2 (configuration not stated) | > 100 µM (inactive)
* C(/Cc1ccc2c(c1)OCO2)=N\N=C1NCCCN1 | > 100 µM (inactive)

Recorded values, source ChEMBL document CHEMBL1201862.
